// data source = PubChem BioAssay AID493091

EXPERIMENTAL TARGET: Carboxy-terminal domain RNA polymerase II polypeptide A small phosphatase 1 (Homo sapiens)
RUN DESCRIPTION: Scp-1 phosphatase inhibitors, primary screen, biochemical, colorimetric, uHTS (AID 493091);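 also: plate controls were DMSO wells with enzyme for no effect and wells lacking enzyme for full effect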
CONDITIONS: Recombinant Scp1, phosphopeptide, malachite green phosphate absorbance; at 20 µM; hits give high values
The whole screen tested about 340,000 compounds, of which about 3,000 (0.88%) were called active. This is one part of a sample in which actives are shown more often than they occur.

>  <MOLECULE>
Cc1ccc(NC(=S)N2CCN(c3ncccn3)CC2)cc1C

>  <inhibition (%)>
4.95

$$$$
>  <MOLECULE>
CCOc1cc(C(=O)O)ccc1OCCOc1ccccc1

>  <inhibition (%)>
6.63

$$$$
>  <MOLECULE>
CCN(C(=O)COc1ccc(C(=O)c2ccccc2)cc1)c1ccccc1

>  <inhibition (%)>
-3.83

$$$$
>  <MOLECULE>
CCOC(=O)C1CCN(C(=O)C2CCCN(S(=O)(=O)c3ccc(OC)c(Cl)c3)C2)CC1 (centres undefined)

>  <inhibition (%)>
-4.52

$$$$
>  <MOLECULE>
CSCCC(NS(=O)(=O)c1ccc(C)cc1)C(=O)N1CCCC1 (centres undefined)

>  <inhibition (%)>
-0.76

$$$$
>  <MOLECULE>
CC/C(=C(/c1ccccc1)c1ccc(OCC[N+](C)(C)C)cc1)c1ccccc1

>  <inhibition (%)>
67.4

$$$$
>  <MOLECULE>
O=C(O)c1cccc(NC(=O)c2cc(-c3cccc(Cl)c3)nc3ccccc23)c1

>  <inhibition (%)>
5.17

$$$$
>  <MOLECULE>
Cc1ccc(CCCOC(=O)C[N+]2(C)CCCC2)cc1

>  <inhibition (%)>
101

$$$$
>  <MOLECULE>
CN(c1ccccc1)S(=O)(=O)c1cccc(C(=O)NNC(=O)c2ccncc2)c1

>  <inhibition (%)>
-6.19

$$$$
>  <MOLECULE>
COc1ccc(CNC(=O)COc2cccnc2[N+](=O)[O-])cc1

>  <inhibition (%)>
-6.82

$$$$
>  <MOLECULE>
O=C(COC(=O)CNC(=O)C1CCCCC1)Nc1cccc(F)c1

>  <inhibition (%)>
-6.06

$$$$
>  <MOLECULE>
CCOc1cc2[nH]c(=S)n(CCCN3CCCC3=O)c(=O)c2cc1OCC

>  <inhibition (%)>
-8.04

$$$$
>  <MOLECULE>
O=C1NC(c2ccccc2)Cc2ccncc21 (centres undefined)

>  <inhibition (%)>
5.3

$$$$
>  <MOLECULE>
Cc1ccc(COC(=O)CN2C(=O)NC3(CCCC3)C2=O)cc1

>  <inhibition (%)>
-2.24

$$$$
>  <MOLECULE>
CN(C)S(=O)(=O)c1cc(NC(=O)CN2C(=O)NC3(CCCc4ccccc43)C2=O)ccc1Cl (centres undefined)

>  <inhibition (%)>
-6.5

$$$$
>  <MOLECULE>
CCOC(=O)c1sc(NC(=O)CSc2nc(C)cc(C(F)(F)F)n2)c(C#N)c1C

>  <inhibition (%)>
-3.8

$$$$
>  <MOLECULE>
COc1ccc(-c2ccc(CCC(=O)O)n2-c2ccc(O)cc2)cc1

>  <inhibition (%)>
-8.68

$$$$
>  <MOLECULE>
Cc1ccc(CCCOC(=O)C[N+]2(C)CCCCC2)cc1

>  <inhibition (%)>
4.77

$$$$
>  <MOLECULE>
O=C(Nc1cccc(F)c1)c1cc(-c2ccco2)nc2ccccc12

>  <inhibition (%)>
57.4

$$$$

---

EXPERIMENTAL TARGET: Carboxy-terminal domain RNA polymerase II polypeptide A small phosphatase 1 (Homo sapiens) (UniProt Q9GZU7)
Sequence (Q9GZU7 76-261 limits assumed): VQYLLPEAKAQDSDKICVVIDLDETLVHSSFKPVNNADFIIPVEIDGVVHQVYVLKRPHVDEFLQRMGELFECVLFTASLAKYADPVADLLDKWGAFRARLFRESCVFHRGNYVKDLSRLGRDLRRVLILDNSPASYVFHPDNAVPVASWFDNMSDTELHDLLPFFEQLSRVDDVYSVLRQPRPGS
RUN DESCRIPTION: Scp-1 phosphatase inhibitors, primary screen, biochemical, colorimetric, uHTS (AID 493091);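 also: plate controls were DMSO wells with enzyme for no effect and wells lacking enzyme for full effect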
CONDITIONS: Recombinant Scp1, phosphopeptide, malachite green phosphate absorbance; at 20 µM; hits give high values
Among all 340,000 compounds or so, about 3,000 (0.88%) were called active. Only a selection was taken, and actives are over-represented in it overall.

>  <COMPOUND>
COCCOC(=O)C1=C(C)NC(=O)NC1c1cc2c(cc1Br)OCO2 (stereo unspecified)

>  <SCALE UNIT>
%

>  <inhibition>
-6.54

$$$$
>  <COMPOUND>
S=C(NCc1ccco1)NCc1ccccc1Cl

>  <SCALE UNIT>
%

>  <inhibition>
-4.7

$$$$
>  <COMPOUND>
COc1ccc2cc(C3=CC(=O)C[C@H](c4ccc5c(c4)OCO5)C3)ccc2c1

>  <SCALE UNIT>
%

>  <inhibition>
-11

$$$$
>  <COMPOUND>
CCOC(=O)CNC(=O)c1nn(-c2cccc(OC)c2)c(=O)c2ccccc12

>  <SCALE UNIT>
%

>  <inhibition>
1.07

$$$$
>  <COMPOUND>
Cc1nn(-c2cc(Cl)ccc2N)c(=O)c2ccccc12

>  <SCALE UNIT>
%

>  <inhibition>
60.1

$$$$
>  <COMPOUND>
CCOC(=O)C1CCN(S(=O)(=O)c2c(C)noc2C)CC1

>  <SCALE UNIT>
%

>  <inhibition>
-4.7

$$$$
>  <COMPOUND>
COc1cccc(NC(C)=[N+](C)CCNS(=O)(=O)c2ccc(Cl)cc2)c1

>  <SCALE UNIT>
%

>  <inhibition>
105

$$$$
>  <COMPOUND>
O=C(COc1ccc(Cl)cc1)Nc1ccccc1CO

>  <SCALE UNIT>
%

>  <inhibition>
-5.63

$$$$
>  <COMPOUND>
O=C(COc1ccc(-n2cnnn2)cc1)Nc1ccccc1Cl

>  <SCALE UNIT>
%

>  <inhibition>
58.7

$$$$
>  <COMPOUND>
O=C(Nc1ccc(-c2ccc3nncn3n2)cc1)C1CCCCC1

>  <SCALE UNIT>
%

>  <inhibition>
-12.9

$$$$
>  <COMPOUND>
O=C(Nc1nnc(SCc2ccccc2Cl)s1)c1cccc([N+](=O)[O-])c1

>  <SCALE UNIT>
%

>  <inhibition>
-14

$$$$
>  <COMPOUND>
O=C(/C=C/c1cccc([N+](=O)[O-])c1)NCCSCc1ccco1

>  <SCALE UNIT>
%

>  <inhibition>
-5.27

$$$$
>  <COMPOUND>
COc1ccc(Cl)cc1C=CC=Nc1ccc(S(N)(=O)=O)cc1

>  <SCALE UNIT>
%

>  <inhibition>
-0.31

$$$$
>  <COMPOUND>
Cc1c([N+](=O)[O-])c(N)nn1C

>  <SCALE UNIT>
%

>  <inhibition>
51

$$$$
>  <COMPOUND>
COc1cccc(NC(=O)CCNS(=O)(=O)c2ccc3c(c2)oc(=O)n3C)c1

>  <SCALE UNIT>
%

>  <inhibition>
6.79

$$$$
>  <COMPOUND>
CCCNC(=O)CCc1c(C)nc2c(c(C)nn2-c2ccccc2)c1C

>  <SCALE UNIT>
%

>  <inhibition>
-19

$$$$
>  <COMPOUND>
CCOC(=O)c1oc2c(CN3CCN(CCO)CC3)c(O)c(CC)cc2c(=O)c1-c1nc2ccccc2s1

>  <SCALE UNIT>
%

>  <inhibition>
-2.5

$$$$
>  <COMPOUND>
O=C(COc1ccc(/C=N/NC(=O)c2ccc(O)cc2)cc1)Nc1ccc([N+](=O)[O-])cc1

>  <SCALE UNIT>
%

>  <inhibition>
-4.15

$$$$
>  <COMPOUND>
Cc1ccc2nc3c(cc(C(=O)NCCc4ccccc4)c(=N)n3CC3CCCO3)c(=O)n2c1 (stereo unspecified)

>  <SCALE UNIT>
%

>  <inhibition>
1.78

$$$$
>  <COMPOUND>
Nc1ccccc1SC(C[N+](=O)[O-])c1ccccc1 (stereo unspecified)

>  <SCALE UNIT>
%

>  <inhibition>
2.72

$$$$
>  <COMPOUND>
CCOc1ccccc1/C=c1\sc2nc(-c3ccco3)nn2c1=O

>  <SCALE UNIT>
%

>  <inhibition>
78

$$$$
>  <COMPOUND>
O=C(O)c1ccccc1/C=N/Nc1ccc(S(=O)(=O)Nc2ccc(Cl)cc2)cc1[N+](=O)[O-]

>  <SCALE UNIT>
%

>  <inhibition>
-7.5

$$$$
>  <COMPOUND>
Cc1cc(=O)oc2c1c(C)nn2-c1ccc(Cl)cc1

>  <SCALE UNIT>
%

>  <inhibition>
-6.94

$$$$
>  <COMPOUND>
O=C(NN=Cc1ccccc1O)NN=Cc1ccccc1O

>  <SCALE UNIT>
%

>  <inhibition>
85.7

$$$$
>  <COMPOUND>
COc1ccccc1OCCCCCCN1CCN(C)CC1

>  <SCALE UNIT>
%

>  <inhibition>
-4.32

$$$$
>  <COMPOUND>
CSc1nc(-c2ccco2)nn1C(=O)c1ccccc1Cl

>  <SCALE UNIT>
%

>  <inhibition>
-10.4

$$$$
>  <COMPOUND>
Cc1cc2occ(CC(=O)NNC(=O)c3ccccc3F)c2cc1C

>  <SCALE UNIT>
%

>  <inhibition>
-10.5

$$$$
>  <COMPOUND>
Cc1nn2c(NCCN(C)C)c3c(nc2c1-c1ccccc1)CCC3

>  <SCALE UNIT>
%

>  <inhibition>
-10.7

$$$$
>  <COMPOUND>
CCOC(=O)c1cc2occc2n1CC(=O)N1CCN(C(=O)c2ccco2)CC1

>  <SCALE UNIT>
%

>  <inhibition>
-2.95

$$$$
>  <COMPOUND>
Cn1nc(C(C)(C)C)c([N+](=O)[O-])c1C(N)=O

>  <SCALE UNIT>
%

>  <inhibition>
-0.65

$$$$
>  <COMPOUND>
CCc1nnc(SCc2cccc(F)c2)nc1CC

>  <SCALE UNIT>
%

>  <inhibition>
-10.3

$$$$
>  <COMPOUND>
O=C(Nc1cccnc1Oc1ncnc2cc(Cl)ccc12)c1ccc(F)cc1

>  <SCALE UNIT>
%

>  <inhibition>
-6.88

$$$$
>  <COMPOUND>
C=C(C)C(=O)Nc1cccc(C2=NOC3(C2)C[C@H](C(N)=O)N(C(=O)C(c2ccccc2)c2ccccc2)C3)c1 (stereo partly specified)

>  <SCALE UNIT>
%

>  <inhibition>
70.2

$$$$
>  <COMPOUND>
O=C(N/N=C/c1ccccc1O)C1CCCC1

>  <SCALE UNIT>
%

>  <inhibition>
-10.5

$$$$
>  <COMPOUND>
Oc1[nH]c2ccccc2c1N=Nc1c(F)c(F)c(F)c(F)c1F

>  <SCALE UNIT>
%

>  <inhibition>
-10.4

$$$$
>  <COMPOUND>
CCS(=O)(=O)N1CCCC(C(=O)NCCCN(C)Cc2ccccc2)C1 (stereo unspecified)

>  <SCALE UNIT>
%

>  <inhibition>
-3.41

$$$$
